Biological target: MBP-FoxP3dN (Mus musculus, UniProt Q99JB6 188-423)
Sequence: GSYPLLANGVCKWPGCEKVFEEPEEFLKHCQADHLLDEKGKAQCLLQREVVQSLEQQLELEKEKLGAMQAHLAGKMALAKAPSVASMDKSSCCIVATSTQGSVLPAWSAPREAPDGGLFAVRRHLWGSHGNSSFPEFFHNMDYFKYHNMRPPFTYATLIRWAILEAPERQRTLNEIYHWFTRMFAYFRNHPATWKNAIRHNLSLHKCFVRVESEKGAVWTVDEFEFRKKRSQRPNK
Assay: PD-seq (MBP pull-down with sequencing); 20 mM Tris-HCl pH 7.5, 100 mM NaCl, 1.5 mM MgCl2, 0.4 uM protein, 0.1 uM dsDNA library, 30 min, room temperature, amylose pull-down; high values mean tight binding
Conditions: protein: recombinant; tags: His6-MBP; chain copies: 2; dsDNA, one strand shown
Over roughly 16,000 sequences, “rpm ratio (pull-down/input)” has its median near 0.5; the highest 2% begin near 5.5. Only a selection was taken, and the highest values are over-represented in it overall.
READOUT_NAME: binding signal

As a guide, the following entries are already answered.
>>> print(df.to_string())
                                 seq_string    readout_name                            result
0  GATGATTGTTCTCCCAGCTGATGAATTGTTGCAATCGAGTAAACAAATTTTCCTAATCTTTCTGTTCAAGCGCCATCTAC  binding signal  5.54 RPM ratio (pull-down/input)
1  GATGATTGTTCTCCCAGCTGATGAATTGATGCCATCGAGTAAACAAATTTTCCTAATCTTTCTGTTCAAGCGCCATCTAC  binding signal  3.67 RPM ratio (pull-down/input)
2  GATGATTGTTCTCCCAGCTGATGAATTGCAACCATCGAGTAAACAAATTTTCCTAATCTTTCTGTTCAAGCGCCATCTAC  binding signal  4.48 RPM ratio (pull-down/input)

Please report binding signal for every entry that follows.
1. GATGATTGTTCTCCCAGCTGATGAATTGCAACAATCGAGTAAACAAATTTTCCTAATCTTTCTGTTCAAGCGCCATCTAC
2. GATGATTGTTCTCCCAGCTGATGAATTGTTTGTTTCGAGTAAACAAATTTTCCTAATCTTTCTGTTCAAGCGCCATCTAC

1: 7.74 RPM ratio (pull-down/input); 2: 7.87 RPM ratio (pull-down/input)

Batch: binding signal for all items listed.
1. GATGATTGTTCTCCCAGCTGATGAATTGCAGCAATCGAGTAAACAAATTTTCCTAATCTTTCTGTTCAAGCGCCATCTAC
2. GATGATTGTTCTCCCAGCTGATGAATTTTTGCAATCGAGTAAACAAATTTTCCTAATCTTTCTGTTCAAGCGCCATCTAC

2.72 RPM ratio (pull-down/input)
3.95 RPM ratio (pull-down/input)

###

Molecular target: MBP-FoxP3dN (Mus musculus, UniProt Q99JB6 188-423)
Sequence: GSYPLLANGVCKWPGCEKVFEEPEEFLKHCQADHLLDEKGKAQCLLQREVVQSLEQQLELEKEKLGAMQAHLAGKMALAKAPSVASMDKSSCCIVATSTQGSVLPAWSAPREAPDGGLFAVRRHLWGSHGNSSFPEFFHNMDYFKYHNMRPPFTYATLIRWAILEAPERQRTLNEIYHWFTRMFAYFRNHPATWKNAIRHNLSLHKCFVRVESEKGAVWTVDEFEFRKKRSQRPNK
Assay: PD-seq (MBP pull-down with sequencing); 20 mM Tris-HCl pH 7.5, 100 mM NaCl, 1.5 mM MgCl2, 0.4 uM protein, 0.1 uM dsDNA library, 30 min, room temperature, amylose pull-down; high values mean tight binding
Conditions: protein: recombinant; tags: His6-MBP; chain copies: 2; dsDNA, one strand shown
Whole data set: some 16,000 sequences, median “rpm ratio (pull-down/input)” near 0.5, cut for the highest 2% near 5.5. Many of the other results were omitted from the sample, so the highest values are more common in it than they were.
READOUT_NAME: binding signal

Worked cases, binding signal given:
>>> df
                                 seq_string                           subject_of_test    readout_name                             result
0  GATGATTGTTCTCCCAGCTGATGAATTTCGCAAATCGAGTAAACAAATTTTCCTAATCTTTCTGTTCAAGCGCCATCTAC  MBP-FoxP3dN (Mus musculus, UniProt Q99JB6 188-423)  binding signal  0.634 RPM ratio (pull-down/input)
1  GATGATTGTTCTCCCAGCTGATGAATTTGTTGAGTCGAGTAAACAAATTTTCCTAATCTTTCTGTTCAAGCGCCATCTAC  MBP-FoxP3dN (Mus musculus, UniProt Q99JB6 188-423)  binding signal   5.53 RPM ratio (pull-down/input)
2  GATGATTGTTCTCCCAGCTGATGAATTGATCTAATCGAGTAAACAAATTTTCCTAATCTTTCTGTTCAAGCGCCATCTAC  MBP-FoxP3dN (Mus musculus, UniProt Q99JB6 188-423)  binding signal  0.356 RPM ratio (pull-down/input)
3  GATGATTGTTCTCCCAGCTGATGAATTGTGTTGATCGAGTAAACAAATTTTCCTAATCTTTCTGTTCAAGCGCCATCTAC  MBP-FoxP3dN (Mus musculus, UniProt Q99JB6 188-423)  binding signal   7.06 RPM ratio (pull-down/input)
4  GATGATTGTTCTCCCAGCTGATGAATTGGAACCGTCGAGTAAACAAATTTTCCTAATCTTTCTGTTCAAGCGCCATCTAC  MBP-FoxP3dN (Mus musculus, UniProt Q99JB6 188-423)  binding signal  0.224 RPM ratio (pull-down/input)
5  GATGATTGTTCTCCCAGCTGATGAATTCAATTGATCGAGTAAACAAATTTTCCTAATCTTTCTGTTCAAGCGCCATCTAC  MBP-FoxP3dN (Mus musculus, UniProt Q99JB6 188-423)  binding signal   1.07 RPM ratio (pull-down/input)

# next sequence below
// fetch binding signal given entry GATGATTGTTCTCCCAGCTGATGAATTGCATTCTTCGAGTAAACAAATTTTCCTAATCTTTCTGTTCAAGCGCCATCTAC
4.62 RPM ratio (pull-down/input)
